# experimental_protocol: soluble on expression in E. coli; label from the status in PepcDB or PDB records
quantity_name: soluble on expression in E. coli

>>> reported_result("MTRPKLELSDDEWRQKLTPQEFHVLRRAGTERPFTGEYTDTTTAGIYQCRACGAELFRSTEKFESHCGWPSFFDPKSSDAVTLRPDHSLGMTRTEVLCANCDSHLGHVFAGEGYPTPTDKRYCINSISLRLVPGSV")
"soluble"
>>> reported_result("GPGSMPERCIGITTVQVGHIVGRGGSTLKGIQERTGATLCIVENGLQVKITADDAAKVAAAEAEVHKIVASQQNPDYEGPCGARLRKEAVELGQKRSKLFEEATRMREAGDHEGANKLVAMAKKAGEDMKARHREAALAIAKHNNEEKGKGPNYFDMHGLHLEEAMEMLKVRMSKLEEKPVGSTTAFEVIPGAGHHSAPGTQKLKRATLEYVQWKGYPCEEVNAGAFLVKVPGLGEGVLSKPEDGDKVPTKPKESATGVANKPKASGSAAASKSKAQSCCACM")
"soluble"
>>> reported_result("MSLTKNKFDNRADKLGESWDLLNKEGRKIGLKHRGEPFKPGEWHSLVNASIFNYQHEILMQQRSFNKIGRPGEWDFETGGSVLASEDSLTAIKREVKEEVGLELNFSEENFVETFRNWPVFDNWYVIKADLSIKDIRIQKSELEQAKFMPFDQAIKYLSSNYLPYLLKAYKKLFGGENEGHHHHHH")
"not soluble"
>>> reported_result("MVQLDGGQFEMGTKATDGKDGESPVMQVKVLPFAIDKYPVTNRDFREFVRAKKYKTEAEAFGWSFVFEDFVSEELKKKVTQKLESAPWWLPVERAFWRQVSNLSVPLLLSGGSKGLFAAE")
"not soluble"
>>> reported_result("MTSVGVPIKILHEAEGHMVTLETVTGEVYRGKLSEAEDNMNCQLAETVVTFRDGRSHQLDNVFIRGNKIRFMILPDMLKNAPMFKNIGRAQKGAIGMGLGGLDQRGRGRGTAFRRPMGRGGPRGMSRPGGAPTFRG")
"not soluble"
>>> reported_result("MKTYYEQDANVGLLQGKTVAVIGYGSQGHAQAQNLRDSGVEVVVGVRPGKSFEVAKADGFEVMSVSEAVRTAQVVQMLLPDEQQAHVYKAEVEENLREGQMLLFSHGFNIHFGQINPPSYVDVAMVAPKSPGHLVRRVFQEGNGVPALVAVHQDATGTALHVALAYAKGVGCTRAGVIETTFQEETETDLFGEQAVLCGGVTALVKAGFETLTEGGYRPEIAYFECLHELKLIVDLMYEGGLTNMRHSISDTAEFGDYVTGSRIVTDETKKEMKRVLTEIQQGEFAKKWILENQAGRPTYNAMKKAEQNHQLEKVGEELREMMSWIHAPKELVKK")
"not soluble"
>>> reported_result("MGSDKIHHHHHHMSGPQGRLAIIAGSGMLPVYVAEAARAAGEDPFILPLKNEADQRWDGFQSAVIGVGDMAGLSSLIKRHGIKRVVMSGGVKKRPNFKEIHVNLRFLVKLPFAVKTLLSGGDDAVLKMVIQLIESQGCRVVGAHEIAPQLLAELGPLGSSRPTDDDRRDIAAAAKAADALGRLDVGQGAVSVGGRIVALEGVEGTDRMLQRVAELRSEGRISSRRSGVLVKLCKPQQDIRADLPTIGQSTIENAARAGLSGIAVQAGRALLLQRQETLRQADAAGIFISGIELAPEGEAWLS")
"not soluble"
>>> reported_result("MGSDKIHHHHHHMLTVLLLAGAEKLINMAIASDEITKAGLVPLAGKVLRLNMGTPDVNLDVLFTQERLRFEPVTTESVFEQSGTMNERQKASLERGRLGHSRPDCIITVANPAQLLNLMRGTEGNLPIEGDYKVLMQLNQLVAGFDPDVAGQLEPFIGKPMASQLHLLISQLKGSWRHSAKRAFNDVSDWANDVAGNVTPDTSEAAEVNVLKQQLLKLRADVEREEARLAAIKDEQARLTNSR")
"not soluble"
>>> reported_result("MSLKYAVLGATGLLGHHAARAIRAAGHDLVLVHRPSSQIQRLAYLEPECRVAEMLDHAGLERALRGLDGVIFSAGYYPSRPRRWQEEVASALGQTNPFYAACLQARVPRILYVGSAYAMPRHPQGLPGHEGLFYDSLPSGKSSYVLCKWALDEQAREQARNGLPVVIGIPGMVLGELDIGPTTGRVITAIGNGEMTHYVAGQRNVIDAAEAGRGLLMALERGRIGERYLLTGHNLEMADLTRRIAELLGQPAPQPMSMAMARALATLGRLRYRVSGQLPLLDETAIEVMAGGQFLDGRKAREELGFFSTTALDDTLLRAIDWFRDNGYFNTEGHHHHHH")
"soluble"
>>> reported_result("MLVLYLVFKKFLFKPVMKVINAREDMIKQQFDDAKKSQEEADALKASYDEKLESAKTEADEIIVNARNRAQEEHEAALEKTRKETEVMLEKAKADIATEKEKATEAAQADIARLALIAARKIVKTGDAHDAGSSK")
"not soluble"
>>> reported_result("MVVMSKVLLNIGCADVDKPGYINVDARKTKVTHLVSNAWDLDCFEENSVHEIYSRHMLEHLNPEYAKLALQKWFYILEPEGKLVVIVPDIEFHARQLLGVSRSSFGDQMEHAFAGFWGWREKERGGSDFDAHQWGYTVATLENEIGAVGFERIERVVEGVDSEPWHLQMTARKPMTSLCCPMDFRGPFPLEHHHHHH")
"soluble"
>>> reported_result("KYQLMANDPVQYKALGKMLGSMGRSDPNEIAPLYFSELMAALKKCATRRTHTNVLQHLCGYLKQTISAEDKQEIQEVIGQYHQGIVPLIVPLTLLKHHFRQHPDPYVALQVYMQPHP")
"not soluble"
>>> reported_result("MKTKYVVIIQCDMAKNRCSGMRCTNAFYEKTDAFENYAKDTKYISFTCGGCSGKVVSSKLANFSRWLKKYDCIKKDEVTIHLSSCMSTDNSHYDRCPNIDYIKQIINKKGYTNIVEGSIFSKKSEKLRDEGIYKKYQ")
"not soluble"
>>> reported_result("MYCHAKLKNISQHTVISAHLFLPDYSPMNRDSFYPAIACFPLLLMLAGCAPMHETRQALSQQTPAAQVDTALPTALKMVGQTANGGWSITIINSLPLEHHHHHH")
"not soluble"

Sourced from the DeepSol protein solubility set
